System: CYP1A
Experiment: in vitro
Settings: nude, mouse, pH 7.8
assay.metric: activity at 10 min, 100 µM (%)

I. CC(C)[C@@H](C)/C=C/[C@@H](C)[C@H]1CC[C@H]2C3=CC=C4C[C@@H](O)CC[C@]4(C)[C@H]3CC[C@]12C
II. O=c1ccc2ccc(O)cc2o1
Prompt line: Param metric = activity at 10 min, 100 µM; output whichever of I , II has the minimum value. Kindly give the label for the entry you pick.
Response line: I
(I: 52.2%, II: 75.8%)

1. CC(=O)OCCCc1ccccc1 [3-Phenyl propyl acetate, 3-phenylpropyl acetate]
2. O=c1c(-c2ccc(O)cc2)coc2cc(O)cc(O)c12
Prompt line: Param metric = activity at 10 min, 100 µM; output whichever of 1 , 2 has the minimum value. Kindly give the label for the entry you pick.
Response line: 2

a. CC1(C)[C@@H](O[C@H]2O[C@H](C(=O)O)[C@@H](O)[C@H](O)[C@H]2O[C@@H]2O[C@H](C(=O)O)[C@@H](O)[C@H](O)[C@H]2O)CC[C@]2(C)[C@H]3C(=O)C=C4[C@@H]5C[C@@](C)(C(=O)O)CC[C@]5(C)CC[C@@]4(C)[C@]3(C)CC[C@@H]12
b. COc1ccc(-c2cc(=O)c3c(O)cc(O[C@@H]4O[C@H](CO[C@@H]5O[C@@H](C)[C@H](O)[C@@H](O)[C@H]5O)[C@@H](O)[C@H](O)[C@H]4O)cc3o2)cc1O
c. C=CC(=C)CCC=C(C)C
d. O=c1c(O)c(-c2ccc(O)c(O)c2)oc2cc(O)cc(O)c12
Prompt line: List the 4 entries from lowest activity at 10 min, 100 µM to highest activity at 10 min, 100 µM value. Thanks in advance for listing the labels in the requested order.
Response line: d, b, c, a

Provenance of the data: patent US20030166583A1
